The reported numbers originate from PubChem BioAssay (Tox21).

Assay: qHTS assay to identify small molecule antagonists of the estrogen related receptor signaling pathway with the pleiotropic PPARgamma coactivator (PGC) from Tox21 10K library (AID 1224841); also: actives are mostly falling curves and most rising ones were filed inactive; nearly all actives have a fitted effect of over 50% in size
Settings: PGC/ERR reporter cell line, ONE-Glo luciferase, 18 h; series mostly up to 92.4 µM
Source text: U.S. Tox21 Program National Center for Advancing Translational Sciences [NCATS] NIH Chemical Genomics Center [NCGC] U.S. Environmental Protection Agency [EPA] National Institutes of Environmental Health Sciences [NIEHS] National Toxicology Program [NTP] U.S. Food and Drug Administration [FDA] Tox21 Assay Overview: Estrogen related receptors (ERRs), the first orphan nuclear receptors discovered, play an important role in the control of cellular energy metabolism. […]
Records with an inconclusive call do not appear. The source made the active and inactive calls. No rule for the calls is given here.
Outcome codes: active, inactive

- structureString: "CC(C)SCc1ccco1"
  labelValue: "inactive"
- structureString: "CC(=O)Nc1ccc(C)cc1"
  labelValue: "inactive"
- structureString: "C=CCOc1c(Br)cc(C(C)(C)c2cc(Br)c(OCC=C)c(Br)c2)cc1Br"
  labelValue: "active"
- structureString: "C1CCN2C[C@@H]3C[C@@H](CN4CCCC[C@@H]34)[C@H]2C1"
  labelValue: "inactive"
- structureString: "O=C(O)c1ccc(OCCN2CCCCC2)cc1"
  labelValue: "inactive"
- structureString: "Cc1ccccc1C"
  labelValue: "inactive"
- structureString: "C=CCOc1c(Br)cc(Br)cc1Br"
  labelValue: "inactive"
